Values from patent US20180327367A1

# Test system: Escherichia coli ATCC 25922
# assay_method_text: Minimum inhibitory concentration, broth micro-dilution (CLSI), E. coli
# Type: cell-based
# experimental_context: Escherichia coli, ATCC25922, 22 h, read-out: MIC (μg/mL) E. coli, E. coli ATCC 25922; 35° C., 22 hours
Item-by-item account of MIC
The figure you give is taken to be in µg/mL; do not add the unit.

Known MIC results, listed for orientation:
compound_smiles: CCCCCCCCc1ccc(C(=O)N[C@@H](CCN)C(=O)N(C)[C@@H]2C(=O)N[C@@H](C)C(=O)N[C@H](C(=O)NCC#N)Cc3ccc(OCCN)c(c3)-c3cc2ccc3OCCN)c(CC(N)=O)c1
measurement_target: Escherichia coli ATCC 25922
MIC, µg/mL: 0.75

compound_smiles: C[C@@H]1NC(=O)[C@@H](N(C)C(=O)[C@H](CCN)NC(=O)c2ccc(-c3ccc(Cl)cc3)cc2)c2ccc(OCCN)c(c2)-c2cc(ccc2OCCN)C[C@@H](C(=O)NCC#N)NC1=O
measurement_target: Escherichia coli ATCC 25922
MIC, µg/mL: 1.5

compound_smiles: CCCCCCCCCC(=O)N[C@@H](CCC(N)=O)C(=O)N[C@@H](CCN)C(=O)N(C)[C@@H]1C(=O)N[C@@H](C)C(=O)N[C@H](C(=O)NCC#N)Cc2ccc(OCCN)c(c2)-c2cc1ccc2OCCN
measurement_target: Escherichia coli ATCC 25922
MIC, µg/mL: 32

compound_smiles: CCCCCCCCCC(=O)N[C@@H](CO)C(=O)N(C)[C@@H](CCN)C(=O)N(C)[C@@H]1C(=O)N[C@@H](C)C(=O)N[C@H](C(=O)NCC#N)Cc2ccc(OCCN)c(c2)-c2cc1ccc2OCCN
measurement_target: Escherichia coli ATCC 25922
MIC, µg/mL: 16

The record that follows has no MIC shown yet.
Identify MIC associated with the compound "CCCCCCCCCC(=O)N[C@H](CCO)C(=O)N[C@@H](CCN)C(=O)N(C)[C@@H]1C(=O)N[C@@H](C)C(=O)N[C@H](C(=O)NCC#N)Cc2ccc(OCCN)c(c2)-c2cc1ccc2OCCN"
32
